Answer each item with its documented Kd.
target: PsiM (Psilocybe cubensis); construct: full length, E. coli; Crystals: pJF45, His6 cut off by thrombin, vector-derived TEV site kept at N-terminus; Wild-type ITC and activity: His6-tagged without thrombin/TEV sites (pFB13); N247M: made from pJF45 template in pET-28a; assay: isothermal titration calorimetry
Provide only the numeric value, understood in µM.

[in] In one line, give reported Kd of the entry "CNCCc1c[nH]c2cccc(OP(=O)(O)O)c12" .
[out] 77.2

[in] In one line, give reported Kd of the entry "Nc1ncnc2c1ncn2[C@@H]1O[C@H](CSCC[C@H](N)C(=O)O)[C@@H](O)[C@H]1O" .
[out] 66

[in] In one line, give reported Kd of the entry "NCCc1c[nH]c2cccc(OP(=O)(O)O)c12" .
[out] 35.7
